Reported IC50 by item:
Tested on: T24 human bladder carcinoma cells
method description: Cytotoxicity assay, sulforhodamine B binding
assay context: T-24, 48 h, read-out: Cytotoxicity IC50
Answer format: numeric, nM implied, no suffix.

[[record]]
molecule = "O=[N+]([O-])c1ccccc1-c1ccc(CN2CCN3CCCC3C2C2CCCCC2)o1 (stereo not drawn) [Compound 615]"
subject_of_test = "T24 human bladder carcinoma cells"
value_kind = "IC50"
unit_abbreviation = "nM"
value_reported = 1400

[[record]]
molecule = "O=[N+]([O-])c1ccc(-c2ccc(CN3CCN4CCCC4C3C3CCCCC3)o2)cc1 (stereo not drawn) [Compound 617]"
subject_of_test = "T24 human bladder carcinoma cells"
value_kind = "IC50"
unit_abbreviation = "nM"
value_reported = 4600

[[record]]
molecule = "c1cncc(N2CCN3CCCC3C2C2CCCCC2)c1 (stereo not drawn) [Compound 522]"
subject_of_test = "T24 human bladder carcinoma cells"
value_kind = "IC50"
unit_abbreviation = "nM"
value_reported = 400000

[[record]]
molecule = "c1cc2ccc3ccc(CN4CCN5CCCC5C4C4CCCCC4)c4ccc(c1)c2c34 (stereo not drawn) [Compound 629]"
subject_of_test = "T24 human bladder carcinoma cells"
value_kind = "IC50"
unit_abbreviation = "nM"
value_reported = 3000

[[record]]
molecule = "CC1=C(CCN2CCN3CCCC3C2C2CCCCC2)C(C)(C)CCC1 (stereo not drawn) [Compound 638]"
subject_of_test = "T24 human bladder carcinoma cells"
value_kind = "IC50"
unit_abbreviation = "nM"
value_reported = 1400


Fill: IC50 (T24 human bladder carcinoma cells) for this molecule Brc1csc(CN2CCN3CCCC3C2C2CCCCC2)c1 (stereo not drawn) [Compound 555]
1200

Recall the reported IC50 of COc1ccc(CN2CCN3CCCC3C2C2CCCCC2)c2ccccc12 (stereo not drawn) [Compound 621] when tested on T24 human bladder carcinoma cells.
700

# assay system T24 human bladder carcinoma cells: give IC50 of Cc1ccc2occ(CN3CCN4CCCC4C3C3CCCCC3)c(=O)c2c1 (stereo not drawn) [Compound 591]
9700

Give the observed IC50 of O=[N+]([O-])c1cccc(-c2ccc(CN3CCN4CCCC4C3C3CCCCC3)o2)c1 (stereo not drawn) [Compound 616] for T24 human bladder carcinoma cells.
2100
